Here, each record is paired with measured phosphorylation enrichment data.
- assayed-system: MERTK (UniProt Q12866)
- Sequence (Q12866 whole entry, looked up): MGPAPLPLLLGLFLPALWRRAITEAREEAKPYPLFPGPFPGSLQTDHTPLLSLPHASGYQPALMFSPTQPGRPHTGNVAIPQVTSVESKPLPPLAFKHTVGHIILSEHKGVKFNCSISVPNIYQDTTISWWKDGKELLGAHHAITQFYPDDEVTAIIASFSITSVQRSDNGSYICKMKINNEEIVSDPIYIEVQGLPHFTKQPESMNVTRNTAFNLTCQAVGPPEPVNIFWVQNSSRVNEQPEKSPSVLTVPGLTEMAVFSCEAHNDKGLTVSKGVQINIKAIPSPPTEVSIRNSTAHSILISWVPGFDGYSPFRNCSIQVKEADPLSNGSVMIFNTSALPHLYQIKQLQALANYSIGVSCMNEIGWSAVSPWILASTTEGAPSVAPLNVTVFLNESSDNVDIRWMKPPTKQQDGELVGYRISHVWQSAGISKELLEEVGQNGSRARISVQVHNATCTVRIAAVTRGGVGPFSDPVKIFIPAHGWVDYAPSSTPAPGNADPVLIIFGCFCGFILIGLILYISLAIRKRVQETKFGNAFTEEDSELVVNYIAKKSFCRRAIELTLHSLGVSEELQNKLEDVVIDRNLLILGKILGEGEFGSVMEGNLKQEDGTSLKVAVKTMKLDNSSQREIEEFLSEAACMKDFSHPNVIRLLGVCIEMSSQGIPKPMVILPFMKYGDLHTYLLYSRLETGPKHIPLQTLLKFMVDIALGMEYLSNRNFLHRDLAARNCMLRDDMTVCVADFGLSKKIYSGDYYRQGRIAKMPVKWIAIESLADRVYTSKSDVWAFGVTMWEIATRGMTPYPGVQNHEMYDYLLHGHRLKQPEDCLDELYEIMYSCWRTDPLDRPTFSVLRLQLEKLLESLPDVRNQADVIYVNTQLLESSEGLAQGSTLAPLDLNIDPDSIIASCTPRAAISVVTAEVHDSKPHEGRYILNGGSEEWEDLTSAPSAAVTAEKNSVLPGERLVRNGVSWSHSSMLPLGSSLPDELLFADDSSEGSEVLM
- procedure-text: phosphorylation enrichment, bacterial display (enrichment ratio); higher = better substrate or ligand; peptides without Tyr show the background;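 further: 11-residue human phosphosite peptides and single-mutation variants displayed on the E. coli surface, counted by deep sequencing, each peptide's frequency after selection divided by its frequency in the unselected input library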;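 further: frequency after pTyr selection over input frequency; kinase dosed for 20-30% of maximal phosphorylation in three min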
observable: phosphorylation enrichment

{"input-sequence": "SSSPTYPDLPF [GLI3_Y168]", "endpoint-result": 0.654}
{"input-sequence": "TLNHQYDYTFH [CSNK1A1_Y292_D297H]", "endpoint-result": 1.11}
{"input-sequence": "RLLVVFPWTQR [HBB_Y36_Y36F]", "endpoint-result": 0.784}
{"input-sequence": "SCTFTYLLGDR [ETHE1_Y38]", "endpoint-result": 0.409}
{"input-sequence": "ESMQSYDLDFP [UNC13B_Y243_D238E_YF]", "endpoint-result": 0.441}
{"input-sequence": "QLAPQYTYTQG [FLNA_Y1761_A1764T]", "endpoint-result": 1.17}
{"input-sequence": "KEDSVYGSQSV [NFKB2_Y868_A867V]", "endpoint-result": 0.399}
{"input-sequence": "VMSMNYRVGAL [BCHE_Y174_V170M]", "endpoint-result": 0.416}
{"input-sequence": "DVRQEYSGMIL [PLXND1_Y616_P617S]", "endpoint-result": 0.35}
{"input-sequence": "TFGQVYKGPHV [TNIK_Y40_R43P_YF]", "endpoint-result": 0.381}
{"input-sequence": "YEEDSYSHVMA [FDPS_Y388_I391V]", "endpoint-result": 0.464}
{"input-sequence": "GIVEDYRPPVY [ACVRL1_Y421_F425V]", "endpoint-result": 0.403}
{"input-sequence": "PQGVGYPQQQQ [EP300_Y2219_P2221Q]", "endpoint-result": 0.4}
{"input-sequence": "KTTILHKLKLG [ARF1_Y35_Y35H]", "endpoint-result": 0.35}
{"input-sequence": "GKTQQYDCKWF [BCR_Y751_YF]", "endpoint-result": 0.451}
{"input-sequence": "HELFVYKSDEN [DOCK3_Y548_C550S_YF]", "endpoint-result": 0.505}
{"input-sequence": "DNAFQYMLTDR [MYH7_Y164_YF]", "endpoint-result": 0.374}
{"input-sequence": "GRVYVYRLSEQ [ITGAE_Y551]", "endpoint-result": 0.4}
{"input-sequence": "FSDQVYRQRRK [TH_Y230]", "endpoint-result": 0.649}
{"input-sequence": "TDGNGYISFNE [LCP1_Y28]", "endpoint-result": 0.412}
{"input-sequence": "IATAIYSGDKI [UGGT2_Y823]", "endpoint-result": 0.455}
{"input-sequence": "EGTATYAAAVL [JUP_Y644]", "endpoint-result": 0.438}
{"input-sequence": "GRPMDYHVSIT [OTOF_Y254_Q255H]", "endpoint-result": 0.414}
{"input-sequence": "GGTPLYMDRQG [AGXT_Y194]", "endpoint-result": 0.409}
{"input-sequence": "ALAHKYHGGGG [HBB_Y146]", "endpoint-result": 0.461}
{"input-sequence": "RPSRWYQFRVA [ANOS1_Y259]", "endpoint-result": 0.699}
{"input-sequence": "RVKTPYSLKRW [BMPR2_Y979]", "endpoint-result": 0.572}
